Here we list molecules with their recorded IC50 when tested on Cathepsin J (Rattus norvegicus, UniProt Q63088).
Sequence (Q63088 whole entry): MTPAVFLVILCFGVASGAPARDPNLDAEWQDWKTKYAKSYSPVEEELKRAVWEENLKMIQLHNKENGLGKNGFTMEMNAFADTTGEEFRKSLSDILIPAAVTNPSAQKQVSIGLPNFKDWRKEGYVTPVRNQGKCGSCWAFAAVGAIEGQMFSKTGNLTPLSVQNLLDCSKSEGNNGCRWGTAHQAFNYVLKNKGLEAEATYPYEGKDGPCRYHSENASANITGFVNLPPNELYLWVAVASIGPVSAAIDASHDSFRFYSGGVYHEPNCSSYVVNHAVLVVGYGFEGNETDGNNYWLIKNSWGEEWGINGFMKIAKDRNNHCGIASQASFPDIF
MEASURED_QUANTITY: IC50 (µM)

a = CC(=O)N[C@@H](Cc1ccc(O)cc1)C(=O)N[C@@H](Cc1ccccc1)C(=O)N[C@@H](CCCNC(=N)N)C(=O)COC(=O)c1c(C)cccc1C
b = COc1ccc(C(=O)ONC(=O)CNC(=O)[C@H](Cc2ccccc2)NC(=O)OCc2ccccc2)cc1
For the two items a and b , which reports the higher IC50 value? I would appreciate it if you answered with the label of your choice.
b
(b: 8.3 µM, a: 3.6 µM)

---

pIC50: −log10 of the molar value.
The compounds below have reported pIC50 for Cathepsin B (Rattus norvegicus, UniProt P00787).
MEASURED_QUANTITY: pIC50

a = CC(=O)N[C@@H](Cc1ccc(O)cc1)C(=O)N[C@@H](Cc1ccccc1)C(=O)N[C@@H](CCCNC(=N)N)C(=O)COC(=O)c1c(C)cccc1C
b = Cc1cccc(C)c1C(=O)OCC(=O)CNC(=O)[C@H](Cc1ccccc1)NC(=O)OCc1ccccc1
c = Cc1cccc(C)c1C(=O)OCC(=O)[C@H](CCCN=C(N)N)NC(=O)[C@H](Cc1ccccc1)NC(=O)OCc1ccccc1
Rank entries according to their pIC50, from the largest number down. // rank by listing labels in the order requested
a, c, b
(a: 8.14, c: 7.82, b: 6.92)
